Tested on: SK-MEL-5 melanoma
Experiment: NCI tumour cell line growth inhibition, 48 h
Where a SMILES comes first, the peptide text is derived from it. The star is where a group is joined. Boc = CC(C)(C)OC(=O)*
Answer condition not met if TGI is under 20 µM, and condition met if it is 20 µM or more.

molecule	label-class
COC(=O)C(Cc1c[nH]c2ccccc12)NC(=O)C(Cc1c[nH]c2ccccc12)NC(=O)C(Cc1c[nH]c2ccccc12)NC(=O)C(Cc1c[nH]c2ccccc12)NC(=O)C(Cc1c[nH]c2ccccc12)NC(=O)OC(C)(C)C (centres undefined) (Boc-WWWWW-OMe; configuration not given here)	condition met
O=S(=O)(O)c1cccc2ccc(O)c(N=Nc3ccc(S(=O)(=O)c4ccc(N=Nc5c(O)ccc6cccc(S(=O)(=O)O)c56)cc4)cc3)c12	condition met
COC(=O)[C@H](C)[C@H]1CC[C@@](C)([C@H]2CC3C(C)(C)[C@H]4CCC(C)=C[C@H]4C[C@@]3(C)O2)OO1 (some centres undefined)	condition not met
O=c1[nH]nc(Cc2ccccc2)n1N=C1CCCCC1	condition met
CC(C)/C(Cl)=N/OC(NC(=O)Nc1ccc(Cl)c(Cl)c1)(C(F)(F)F)C(F)(F)F	condition met
CN(O)C(=O)c1ccc(OCc2cccc(Cl)c2)cc1	condition met
O=C(Nc1ncc([N+](=O)[O-])s1)c1cccc([N+](=O)[O-])c1	condition not met
CN(C)c1ccc(/C=C(\NC(=O)c2ccccc2)c2nc3ccccc3c(=O)o2)cc1	condition met
CCN(CC)c1ccc2[nH]c3c(C(N)=O)cc(=O)c(=O)c=3oc2c1	condition not met
Clc1ccc(Nc2ccnc(NCCNc3ccnc4cc(Cl)ccc34)n2)cc1	condition not met
COc1ccc(/C=C/C(=O)/C=C(/C=C/c2ccc(OC)c(OC)c2)OB(F)F)cc1OC	condition not met
O=C(CSc1nc2ccc([N+](=O)[O-])cc2[nH]1)Nc1cccc(C(F)(F)F)c1	condition not met
COc1cccc2c(Nc3ccc(C(=O)NCCNCCO)cc3)cc(-c3ccccc3)nc12	condition met
OCc1ccc(N(Cc2ccc(F)cc2)C2CCC2)cc1Cl	condition met
COc1ccc(C[C@H]2NC[C@H](OC(C)=O)[C@H]2OC(C)=O)cc1	condition not met
O=c1oc2ccccc2c(Cl)c1Cl	condition not met
O=C(O)CSCC(=O)c1ccccc1	condition met
CCCCCCC(O)C/C=C/CCCCCC/C(C(=O)OC)=C(/O)C(=O)OCC (centres undefined)	condition met

* * *

Test system: SK-OV-3 ovarian
Assay: NCI tumour cell line growth inhibition, 48 h
// reported TGI for each item listed
measure: TGI

> print(dat)
                                    compound  observed.value
 1  CCOC(=O)c1[nH]c2cccc3c2c1CC(Br)C3=O (stereo unspecified)         54.7 µM
 2          Nc1c(O)c2c(c(O)c1Cl)C(=O)C=CC2=O       > 60.7 µM
 3  COc1c2c(c(OC)c3c(=O)cc(C/C(=N/NC(=O)C[n+]4ccccc4)C(=O)Nc4cc(C)ccc4C)oc13)OCO2        > 100 µM
 4  Cc1ccc(C)c(-n2c(-c3ccc(Br)cc3)csc2=NC(=O)c2ccccc2F)c1        > 100 µM
 5  CCNCCNc1cc(-c2ccc(Cl)cc2)c(C#N)c2nc3ccccc3n12         3.47 µM
 6                  CC(C)(C)C(=O)Nc1ccccc1Br        > 100 µM
 7  C(=C\c1ccccc1)/Cn1nc(-c2ccccc2)nc1-c1cnccn1        > 100 µM
 8                    O=c1oc2ccccc2c(Cl)c1Cl         87.3 µM
 9  C=CC[P@@]1(=O)O[C@H](c2ccccc2)C(C)N1C(C)C (stereo partly specified)        > 100 µM
10                  COP(=N[Si](C)(C)C)(OC)OC        > 100 µM
11           c1ccc(Oc2c3ccccc3nc3ccccc23)cc1           21 µM

Data origin: PubChem BioAssay (NCI)
